Values compiled from patent US20260327243A1.

- Tested on: A549 cells
- test-description: Cell Viability Assay, A549
- Assay type: cell-based
- test-conditions: A549; human lung carcinoma; 72 h; CellTiter-Glo
pIC50: −log10 of the molar value.
assay-endpoint: pIC50

Exam item: Under A549 cells: pIC50 value of C=CC(=O)N1CCN(C2CN(c3cc(N4CCC5(CC4)OC(C)C=C5C)nc(C(F)(F)F)c3C#N)C2)CC1 (stereo not drawn) [Compound 3-053] ?
Marked response: < 5.30

Exam item: Under A549 cells: pIC50 value of C=CC(=O)N1CCN(C2CN(c3cc(N4CCC5(C=CCO5)CC4)nc(C(F)(F)F)c3C#N)C2)CC1 [Compound 3-059] ?
Marked response: < 5.30

Exam item: Under A549 cells: pIC50 value of C=CC(=O)N1CCN([C@@H]2CN(c3cc(N4CC[C@]5(C[C@H]4C)OC[C@@H](CO)n4ncc(C)c45)nc(C(F)F)n3)[C@@H]2C)CC1 (single isomer, unassigned) [Compound 3-088-1] ?
Marked response: < 5.30

Exam item: Under A549 cells: pIC50 value of C=CC(=O)N1CCN([C@@H]2CN(c3cc(N4CCC5(CC4)OCCC5=C)nc(C(F)(F)F)n3)[C@@H]2C)CC1 [Compound 3-074] ?
Marked response: < 5.30

Exam item: Under A549 cells: pIC50 value of C=CC(=O)N1CCN(C2CN(c3cc(N4CCC5(CC4)OCc4cnccc45)nc(C(F)(F)F)c3C#N)C2)CC1 [Compound 3-043] ?
Marked response: < 5.30

Exam item: Under A549 cells: pIC50 value of C=CC(=O)N1CCN(C2CN(c3cc(N4CCC5(CC4)OCc4ncsc45)nc(C(F)(F)F)c3C#N)C2)CC1 [Compound 3-046] ?
Marked response: < 5.30

----------
- measurement-target: KRAS^G12C (Homo sapiens, UniProt P01116, C118A/G12C)
- Sequence (P01116 1-169 isoform P01116-2 G12C/C118A): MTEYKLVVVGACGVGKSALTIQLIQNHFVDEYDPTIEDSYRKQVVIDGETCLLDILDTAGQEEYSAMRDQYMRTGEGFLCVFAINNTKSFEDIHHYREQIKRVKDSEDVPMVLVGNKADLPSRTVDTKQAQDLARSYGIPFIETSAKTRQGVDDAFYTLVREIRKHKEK
- test-description: Coupled Nucleotide Exchange Assay
- test-conditions: GDP-bound KRAS (aa 1-169) G12C/C118A; 2 h compound pre-incubation; SOS-mediated exchange, 30 min; cRAF binding (AlphaLISA)
assay-endpoint: log10(IC50) (log10 of the value in µM)
Hey, these are logged values: log10 of IC50, µM being the unit before logging.

Exam item: Can you look up the measured log10(IC50) of C=CC(=O)N1CCN([C@@H]2CN(c3cc(N4CCC5(CC4)C(F)(F)C54CC4)nc(C(F)(F)F)n3)[C@@H]2C)CC1 [Compound 3-022] for me?
Marked response: 0.75

Exam item: Can you look up the measured log10(IC50) of C=CC(=O)N1CCN(C2CN(c3cc(N4CCC5(CC4)OCc4cnn(C)c45)nc(C(F)(F)F)n3)C2)CC1 [Compound 3-047] for me?
Marked response: 0.43

Exam item: Can you look up the measured log10(IC50) of C=CC(=O)N1CCN(C2CN(c3cc(N4CCC5(CC4)OC(C)C=C5Cl)nc(C(F)(F)F)c3C#N)C2)CC1 (centres unmarked) [Compound 3-065] for me?
Marked response: -0.12

Exam item: Can you look up the measured log10(IC50) of C=CC(=O)N1CCN([C@@H]2CN(c3cc(N4CC[C@]5(C[C@H]4C)OC[C@@H](COC)n4ncc(C)c45)nc(C(F)F)n3)[C@@H]2C)CC1 (single isomer, unassigned) [Compound 3-090-1] for me?
Marked response: -0.84

Exam item: Can you look up the measured log10(IC50) of C=CC(=O)N1CCN(C2CN(c3cc(N4CCC5(C=CCO5)CC4)nc(C(F)(F)F)c3C#N)C2)CC1 [Compound 3-059] for me?
Marked response: -0.67

Exam item: Can you look up the measured log10(IC50) of C=CC(=O)N1CCN(C2CN(c3cc(N4CCC5(C=CCO5)CC4)nc(C(F)F)c3C)C2)CC1 [Compound 3-070] for me?
Marked response: 0.15

Exam item: Can you look up the measured log10(IC50) of C=CC(=O)N1CCN([C@@H]2CN(c3cc(N4CCC5(C[C@H]4C)OCC=C5C)nc(C(F)(F)F)n3)[C@@H]2C)CC1 (some centres unmarked) [Compound 3-005] for me?
Marked response: -0.74

Exam item: Can you look up the measured log10(IC50) of C=CC(=O)N1CCN(C2CN(c3cc(N4CCC5(C=CC(C)O5)CC4)nc(C(F)(F)F)c3C#N)C2)CC1 (centres unmarked) [Compound 3-066] for me?
Marked response: -0.26
